Where do the numbers come from? From ChEMBL document CHEMBL2401737.

system: Human immunodeficiency virus; assay: Antiviral activity against pseudo Human immunodeficiency virus infected in HEK293T cells after 2 days in presence of human serum albumin; format: functional, organism-based; details: Human immunodeficiency virus 1, HEK-293T, 48 h
ENDPOINT: IC50 (nM)
One number for each entry, in nM.

COMPOUND | IC50 (nM)
COC[C@@H]1CCN2C(=O)c3c(O)c(=O)c(C(=O)NCc4ccc(F)cc4F)cn3C[C@@H]2O1 | 2.3
CC[C@H]1CO[C@@H]2Cn3cc(C(=O)NCc4ccc(F)cc4F)c(=O)c(O)c3C(=O)N12 | 63
CC[C@H]1CCN2C(=O)c3c(O)c(=O)c(C(=O)NCc4ccc(F)cc4F)cn3C[C@H]2O1 | 3.1
C[C@H]1CO[C@@H]2Cn3cc(C(=O)NCc4ccc(F)cc4F)c(=O)c(O)c3C(=O)N2C1 | 5.2
C[C@@H]1CCN2C(=O)c3c(O)c(=O)c(C(=O)NCc4ccc(F)cc4F)cn3C[C@@H]2O1 | 7
O=C(NCc1ccc(F)cc1F)c1cn2c(c(O)c1=O)C(=O)N1[C@@H](Cc3c[nH]c4ccccc34)CO[C@@H]1C2 | 71
CC[C@@H]1CCN2C(=O)c3c(O)c(=O)c(C(=O)NCc4ccc(F)cc4F)cn3C[C@@H]2O1 | 9.4
CSCC[C@H]1CO[C@@H]2Cn3cc(C(=O)NCc4ccc(F)cc4F)c(=O)c(O)c3C(=O)N12 | 18

Okay, here is my list. What is IC50 for each of these?
1. CCCC[C@H]1CO[C@@H]2Cn3cc(C(=O)NCc4ccc(F)cc4F)c(=O)c(O)c3C(=O)N12
2. CC1(C)CO[C@@H]2Cn3cc(C(=O)NCc4ccc(F)cc4)c(=O)c(O)c3C(=O)N2C1

**A:**
1: 1800; 2: 7.9

**Q:** # returns recorded IC50 (system: Human immunodeficiency virus) for O=C(NCc1ccc(F)cc1)c1cn2c(c(O)c1=O)C(=O)N1CCCOC1C2 (racemic)
**A:** 20

* * *

assay: Solubility of the compound in simulated gastrointestinal fluid; type: physicochemical
ENDPOINT: solubility (µg/mL)
Answers are plain numbers, in µg/mL.

COMPOUND | ENDPOINT | UNIT OF MEASUREMENT | NUMBER
C[C@H]1CO[C@@H]2Cn3cc(C(=O)NCc4ccc(F)cc4F)c(=O)c(O)c3C(=O)N12 [CABOTEGRAVIR] | solubility | µg/mL | 42

Okay, now this compound:
**Q:** Quick one: solubility of C[C@@H]1CCO[C@H]2Cn3cc(C(=O)NCc4ccc(F)cc4F)c(=O)c([O-])c3C(=O)N12.[Na+] [DOLUTEGRAVIR SODIUM] ?
**A:** 130

* * *

assay: Clearance in Sprague-Dawley rat at 1 mg/kg, iv and 5 mg/kg, po administered as suspension by LC-MS/MS analysis; assay type: ADME, organism-based; conditions: in vivo
ENDPOINT: clearance (mL/min/kg)
One number for each entry, in mL/min/kg.

**Q:** Quick one: clearance of C[C@@H]1CCO[C@H]2Cn3cc(C(=O)NCc4ccc(F)cc4F)c(=O)c([O-])c3C(=O)N12.[Na+] [DOLUTEGRAVIR SODIUM] ?
**A:** 0.23
